// reported pIC50 per item
- TESTED_SYSTEM: human Gal-3 (hGal-3) (Homo sapiens (Human))
- METHOD_DESCRIPTION: Competitive binding assay: biotinylated hGal-3 binding to microplate-adsorbed asialofetuin (ASF)
- STUDY_CONDITIONS: Activity on hGal-3; binding of biotinylated hGal-3 to ASF-coated plates; mean values
pIC50: −log10 of the molar value.
PARAMETER: pIC50

>>> quantitative_result("CO[C@@H]1[C@@H](n2cc(-c3cc(F)c(NCCCO)c(F)c3)nn2)[C@@H](O)[C@@H](CO)O[C@H]1C(=O)N(c1cc(Cl)cc(Cl)c1)[C@H]1CCCC[C@@H]1O [Example 204]")
7.68
>>> quantitative_result("O=C([C@@H]1O[C@H](CO)[C@H](O)[C@H](n2cc(-c3cc(F)c(F)c(F)c3)nn2)[C@H]1O)N(Cc1cccc(Cl)c1)[C@H]1CCCC[C@@H]1O [Example 2]")
6.52
>>> quantitative_result("O=C([C@@H]1O[C@H](CO)[C@H](O)[C@H](n2cc(-c3cc(F)c(F)c(F)c3)nn2)[C@H]1O)N(Cc1cncnc1C(F)(F)F)[C@H]1CCCC[C@@H]1O [Example 27]")
6.58
>>> quantitative_result("CO[C@@H]1[C@@H](n2cc(-c3cc(F)c(F)c(F)c3)nn2)[C@@H](O)[C@@H](CO)O[C@H]1C(=O)N(Cc1ccccc1C(F)(F)F)[C@H]1CCCC[C@@H]1O [Example 11]")
7.26
>>> quantitative_result("Cc1ccc(-c2cn([C@H]3[C@@H](O)[C@@H](CO)O[C@@H](C(=O)N(c4cc(Cl)cc(C#N)c4)[C@H]4CCCC[C@@H]4O)[C@@H]3OCC(=O)N3CCOCC3)nn2)c(F)c1F [Example 173]")
8.05
>>> quantitative_result("O=C([C@@H]1O[C@H](CO)[C@H](O)[C@H](n2cc(-c3cc(F)c(F)c(F)c3)nn2)[C@H]1O)N(CCc1ccccc1)[C@H]1CCCC[C@@H]1O [Example 4]")
6.17
>>> quantitative_result("CO[C@@H]1[C@@H](n2cc(-c3cc(F)c(F)c(F)c3)nn2)[C@@H](O)[C@@H](CO)O[C@H]1C(=O)N(c1cccc(C#N)c1)[C@H]1CCCC[C@@H]1O [Example 115]")
7.60
>>> quantitative_result("CO[C@@H]1[C@@H](n2cc(-c3cc(F)cc(Cl)c3)nn2)[C@@H](O)[C@@H](CO)O[C@H]1C(=O)N(c1cc(Br)cc(C#N)c1)[C@H]1CCCC[C@@H]1O [Example 137]")
7.62
>>> quantitative_result("CO[C@@H]1[C@@H](n2cc(-c3cc(F)c(F)c(F)c3)nn2)[C@@H](O)[C@@H](CO)O[C@H]1C(=O)N(c1cccc(F)c1)[C@H]1CCCC[C@@H]1O [Example 114]")
7.31
>>> quantitative_result("CO[C@@H]1[C@@H](n2cc(-c3cc(F)c(F)c(F)c3)nn2)[C@@H](O)[C@@H](CO)O[C@H]1C(=O)N(c1cccc(C(F)(F)F)c1)[C@H]1CCCC[C@@H]1O [Example 116]")
7.59
>>> quantitative_result("CO[C@@H]1[C@@H](n2cc(-c3cc(F)c(F)c(F)c3)nn2)[C@@H](O)[C@@H](CO)O[C@H]1C(=O)N(c1ccc2ccccc2c1)[C@H]1CCCC[C@@H]1O [Example 197]")
7.01

* * *

- TESTED_SYSTEM: human Gal-1 (hGal-1)
- Sequence (P09382 2-135 limits assumed): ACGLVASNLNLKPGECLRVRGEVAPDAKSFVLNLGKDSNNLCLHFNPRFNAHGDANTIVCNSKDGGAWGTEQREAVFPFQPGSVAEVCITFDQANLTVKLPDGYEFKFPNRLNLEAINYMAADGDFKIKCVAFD
- METHOD_DESCRIPTION: Competitive binding assay: biotinylated hGal-1 binding to microplate-adsorbed asialofetuin (ASF)
- STUDY_CONDITIONS: Activity on hGal-1; binding of biotinylated hGal-1 to ASF-coated plates; mean values
pIC50: −log10 of the molar value.
PARAMETER: pIC50

>>> quantitative_result("O=C(O)CO[C@@H]1[C@@H](n2cc(-c3cc(F)c(F)c(F)c3)nn2)[C@@H](O)[C@@H](CO)O[C@H]1C(=O)N(c1cc(Cl)cc(Cl)c1)[C@H]1CCCC[C@@H]1O [Example 195]")
7.02
>>> quantitative_result("CO[C@@H]1[C@@H](n2cc(-c3cc(F)c(F)c(F)c3)nn2)[C@@H](O)[C@@H](CO)O[C@H]1C(=O)N(c1ccccn1)[C@H]1CCCC[C@@H]1O [Example 194]")
5.56
>>> quantitative_result("O=C([C@@H]1O[C@H](CO)[C@H](O)[C@H](n2cc(-c3cc(F)c(F)c(F)c3)nn2)[C@H]1O)N(Cc1cnsc1)[C@H]1CCCC[C@@H]1O [Example 18]")
4.94
>>> quantitative_result("O=C([C@@H]1O[C@H](CO)[C@H](O)[C@H](n2cc(-c3cc(F)c(F)c(F)c3)nn2)[C@H]1O)N(Cc1ccccc1)[C@H]1CCCC[C@@H]1O [Example 1]")
5.19
>>> quantitative_result("CO[C@@H]1[C@@H](n2cc(-c3cc(F)c(F)c(F)c3)nn2)[C@@H](O)[C@@H](CO)O[C@H]1C(=O)N(c1cccc(Cl)c1)[C@H]1CCCC[C@@H]1O [Example 58]")
6.14

* * *

- TESTED_SYSTEM: human Gal-1 (hGal-1)
- METHOD_DESCRIPTION: Competitive binding assay: biotinylated hGal-1 binding to microplate-adsorbed asialofetuin (ASF)
- STUDY_CONDITIONS: Activity on hGal-1; binding of biotinylated hGal-1 to ASF-coated plates; mean values
pIC50: −log10 of the molar value.
PARAMETER: pIC50

>>> quantitative_result("O=C([C@@H]1O[C@H](CO)[C@H](O)[C@H](n2cc(-c3cc(F)c(F)c(F)c3)nn2)[C@H]1O)N(Cc1ccc(Cl)cc1)[C@H]1CCCC[C@@H]1O")
4.74
>>> quantitative_result("O=C([C@@H]1O[C@H](CO)[C@H](O)[C@H](n2cc(-c3cc(F)c(F)c(F)c3)nn2)[C@H]1O)N(Cc1ccc(Cl)o1)[C@H]1CCCC[C@@H]1O")
4.64
>>> quantitative_result("CO[C@@H]1[C@@H](n2cc(-c3cc(F)c(F)c(F)c3)nn2)[C@@H](O)[C@@H](CO)O[C@H]1C(=O)N(c1cc(Cl)cc(Cl)c1)[C@H]1CCCCC[C@@H]1O")
6.23

* * *

- TESTED_SYSTEM: human Gal-3 (hGal-3) (Homo sapiens (Human), UniProt P17931)
- Sequence (P17931 whole entry): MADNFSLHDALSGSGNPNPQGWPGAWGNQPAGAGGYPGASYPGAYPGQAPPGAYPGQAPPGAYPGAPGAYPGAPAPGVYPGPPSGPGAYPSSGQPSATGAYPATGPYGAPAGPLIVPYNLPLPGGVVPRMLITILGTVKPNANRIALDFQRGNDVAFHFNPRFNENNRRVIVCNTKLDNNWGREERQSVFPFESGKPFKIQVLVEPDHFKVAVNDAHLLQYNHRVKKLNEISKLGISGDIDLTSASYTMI
- METHOD_DESCRIPTION: Competitive binding assay: biotinylated hGal-3 binding to microplate-adsorbed asialofetuin (ASF)
- STUDY_CONDITIONS: Activity on hGal-3; binding of biotinylated hGal-3 to ASF-coated plates; mean values
PARAMETER: IC50 (nM)

>>> quantitative_result("CO[C@@H]1[C@@H](n2cc(-c3cc(F)c(F)c(F)c3)nn2)[C@@H](O)[C@@H](CO)O[C@H]1C(=O)N(Cc1cc2ccccc2n1C)[C@H]1CCCC[C@@H]1O")
344
>>> quantitative_result("CO[C@@H]1[C@@H](n2cc(-c3cc(F)cc(Br)c3)nn2)[C@@H](O)[C@@H](CO)O[C@H]1C(=O)N(c1cc(Cl)cc(C#N)c1)[C@H]1CCCC[C@@H]1O")
18
>>> quantitative_result("CO[C@@H]1[C@@H](n2cc(-c3nc(Cl)cs3)nn2)[C@@H](O)[C@@H](CO)O[C@H]1C(=O)N(c1cccc(F)c1F)[C@H]1CCCC[C@@H]1O")
143
>>> quantitative_result("CC(=O)O[C@@H]1[C@@H](n2cc(-c3cc(F)c(Cl)c(F)c3)nn2)[C@@H](O)[C@@H](CO)O[C@H]1C(=O)N(Cc1ccccc1C(F)(F)F)[C@H]1CCCC[C@@H]1O")
44
>>> quantitative_result("CO[C@@H]1[C@@H](n2cc(-c3cc(F)c(F)c(F)c3)nn2)[C@@H](O)[C@@H](CO)O[C@H]1C(=O)N(Cc1nccn1C)[C@H]1CCCC[C@@H]1O")
337
>>> quantitative_result("CO[C@@H]1[C@@H](n2cc(-c3ccc(C)c(F)c3)nn2)[C@@H](O)[C@@H](CO)O[C@H]1C(=O)N(c1cc(Br)cc(C#N)c1)[C@H]1CCCC[C@@H]1O")
8
>>> quantitative_result("CO[C@@H]1[C@@H](n2cc(-c3cc(F)c(Cl)c(Cl)c3)nn2)[C@@H](O)[C@@H](CO)O[C@H]1C(=O)N(c1ccc2ncsc2c1)[C@H]1CCCC[C@@H]1O")
25
>>> quantitative_result("COc1cccc(OC)c1CN(C(=O)[C@@H]1O[C@H](CO)[C@H](O)[C@H](n2cc(-c3cc(F)c(F)c(F)c3)nn2)[C@H]1OC)[C@H]1CCCC[C@@H]1O")
199
>>> quantitative_result("CO[C@@H]1[C@@H](n2cc(-c3cc(F)c(F)c(Cl)c3)nn2)[C@@H](O)[C@@H](CO)O[C@H]1C(=O)N(c1cc(Cl)cc(C#N)c1)[C@H]1CCCC[C@@H]1O")
13
>>> quantitative_result("CO[C@@H]1[C@@H](n2cc(-c3ccc(Cl)c(F)c3)nn2)[C@@H](O)[C@@H](CO)O[C@H]1C(=O)N(c1cc(Cl)cc(Cl)c1)[C@H]1CCCC[C@@H]1O")
10
>>> quantitative_result("COc1cc(Cl)cc(N(C(=O)[C@@H]2O[C@H](CO)[C@H](O)[C@H](n3cc(-c4cc(F)c(F)c(F)c4)nn3)[C@H]2OC)[C@H]2CCCC[C@@H]2O)c1")
19
